Test Protocol: Evaluation of solubility of thiazolothiazole derivatives in organic solvents
Assay type: physicochemical
Cond: organic solvent or mixture, thermodynamic from solid; 10 mg (1.0 weight %) in 1 ml monochlorobenzene; 25° C., else heated to boiling temperature; naked eye; read-out: Solubility Monochlorobenzene
Measured solubility, listed per entry.

Here's what some known entries look like.
CCCCCCCCCCCCc1ccc(-c2cc(CCCCCCCC)c(-c3nc4sc(-c5sc(-c6ccc(CCCCCCCCCCCC)cc6)cc5CCCCCCCC)nc4s3)s2)cc1 = > 10000 µg/mL
CCCCc1ccc(-c2ccc(-c3nc4sc(-c5ccc(-c6ccc(CCCC)cc6)s5)nc4s3)s2)cc1 = < 10000 µg/mL
CCCCCCCCc1ccc(-c2cc(CCCCCCCC)c(-c3nc4sc(-c5sc(-c6ccc(CCCCCCCC)cc6)cc5CCCCCCCC)nc4s3)s2)cc1 = > 10000 µg/mL
c1csc(-c2ccc(-c3nc4sc(-c5ccc(-c6cccs6)s5)nc4s3)s2)c1 [Compound 3, reference compound] = < 10000 µg/mL

Next compound, solubility to be filled in.
Exercise: Identify measured solubility corresponding to `CCCCCCCCc1cc(-c2ccc(CCCC)cc2)sc1-c1nc2sc(-c3sc(-c4ccc(CCCC)cc4)cc3CCCCCCCC)nc2s1`
Key: > 10000 µg/mL

* * *

solubility values by entry
Test Protocol: Evaluation of solubility of thiazolothiazole derivatives in organic solvents
Format: physicochemical
Cond: organic solvent or mixture, thermodynamic from solid; 10 mg (1.0 weight %) in 1 ml toluene; 25° C., else heated to boiling temperature; naked eye; read-out: Solubility Toluene

Example entries and their recorded answers appear below.
CCCCCCCCCCCCc1ccc(-c2cc(CCCCCCCC)c(-c3nc4sc(-c5sc(-c6ccc(CCCCCCCCCCCC)cc6)cc5CCCCCCCC)nc4s3)s2)cc1 [Exemplary Compound (28)] = > 10000 µg/mL
CCCCc1ccc(-c2ccc(-c3nc4sc(-c5ccc(-c6ccc(CCCC)cc6)s5)nc4s3)s2)cc1 [Exemplary Compound (1)] = < 10000 µg/mL

// moving on: another record for solubility
Exercise: Return the recorded solubility value; entry: CC(C)(C)c1ccc(-c2ccc(-c3nc4sc(-c5ccc(-c6ccc(C(C)(C)C)cc6)s5)nc4s3)s2)cc1 [Exemplary Compound (15)]
Key: < 10000 µg/mL

* * *

Measured solubility of individual entries
Test Protocol: Evaluation of solubility of thiazolothiazole derivatives in organic solvents
Assay type: physicochemical
Cond: organic solvent or mixture, thermodynamic from solid; 10 mg (1.0 weight %) in 1 ml dichlorobenzene; 25° C., else heated to boiling temperature; naked eye; read-out: Solubility Dichlorobenzene

Examples with their reported solubility follow.
CCCCCCCCc1cc(-c2ccc(CCCC)cc2)sc1-c1nc2sc(-c3sc(-c4ccc(CCCC)cc4)cc3CCCCCCCC)nc2s1 [Exemplary Compound (25)] = > 10000 µg/mL
CCCCCCCCc1ccc(-c2cc(C)c(-c3nc4sc(-c5sc(-c6ccc(CCCCCCCC)cc6)cc5C)nc4s3)s2)cc1 [Exemplary Compound (8)] = > 10000 µg/mL
CCCCc1ccc(-c2ccc(-c3nc4sc(-c5ccc(-c6ccc(CCCC)cc6)s5)nc4s3)s2)cc1 [Exemplary Compound (1)] = < 10000 µg/mL
CCCCOc1ccc(-c2ccc(-c3nc4sc(-c5ccc(-c6ccc(OCCCC)cc6)s5)nc4s3)s2)cc1 [Exemplary Compound (11)] = < 10000 µg/mL
CCCCCCCCc1ccc(-c2cc(CCCCCCCC)c(-c3nc4sc(-c5sc(-c6ccc(CCCCCCCC)cc6)cc5CCCCCCCC)nc4s3)s2)cc1 [Exemplary Compound (27)] = > 10000 µg/mL

Exercise: Tell me its solubility given CC(C)(C)c1ccc(-c2ccc(-c3nc4sc(-c5ccc(-c6ccc(C(C)(C)C)cc6)s5)nc4s3)s2)cc1 [Exemplary Compound (15)] as the entry.
Key: < 10000 µg/mL

Exercise: Return reported solubility. Input compound: CCCCCCCCCCCCc1ccc(-c2cc(CCCCCCCC)c(-c3nc4sc(-c5sc(-c6ccc(CCCCCCCCCCCC)cc6)cc5CCCCCCCC)nc4s3)s2)cc1 [Exemplary Compound (28)]
Key: > 10000 µg/mL

Exercise: Determine its reported solubility: c1csc(-c2ccc(-c3nc4sc(-c5ccc(-c6cccs6)s5)nc4s3)s2)c1 [Compound 3, reference compound]
Key: < 10000 µg/mL

* * *

Test Protocol: Evaluation of solubility of thiazolothiazole derivatives in organic solvents
Assay type: physicochemical
Cond: organic solvent or mixture, thermodynamic from solid; 10 mg (1.0 weight %) in 1 ml THF; 25° C., else heated to boiling temperature; naked eye; read-out: Solubility THF
Reported solubility is given for each of the following compounds.

Study these solved cases before continuing.
CCCCc1ccc(-c2ccc(-c3nc4sc(-c5ccc(-c6ccc(CCCC)cc6)s5)nc4s3)s2)cc1 [Exemplary Compound (1)] = < 10 mg/mL
CCCCCCCCc1ccc(-c2cc(C)c(-c3nc4sc(-c5sc(-c6ccc(CCCCCCCC)cc6)cc5C)nc4s3)s2)cc1 [Exemplary Compound (8)] = > 10 mg/mL
CCCCCCCCCCCCc1ccc(-c2cc(CCCCCCCC)c(-c3nc4sc(-c5sc(-c6ccc(CCCCCCCCCCCC)cc6)cc5CCCCCCCC)nc4s3)s2)cc1 [Exemplary Compound (28)] = > 10 mg/mL
c1csc(-c2ccc(-c3nc4sc(-c5ccc(-c6cccs6)s5)nc4s3)s2)c1 [Compound 3, reference compound] = < 10 mg/mL
CCCCOc1ccc(-c2ccc(-c3nc4sc(-c5ccc(-c6ccc(OCCCC)cc6)s5)nc4s3)s2)cc1 [Exemplary Compound (11)] = < 10 mg/mL
CCCCCCCCc1cc(-c2ccc(CCCC)cc2)sc1-c1nc2sc(-c3sc(-c4ccc(CCCC)cc4)cc3CCCCCCCC)nc2s1 [Exemplary Compound (25)] = > 10 mg/mL
CCCCCCCCc1ccc(-c2cc(CCCCCCCC)c(-c3nc4sc(-c5sc(-c6ccc(CCCCCCCC)cc6)cc5CCCCCCCC)nc4s3)s2)cc1 [Exemplary Compound (27)] = > 10 mg/mL

With those in mind, consider the next compound.
Exercise: Look up and report measured solubility for this entry: CC(C)(C)c1ccc(-c2ccc(-c3nc4sc(-c5ccc(-c6ccc(C(C)(C)C)cc6)s5)nc4s3)s2)cc1 [Exemplary Compound (15)]
Key: < 10 mg/mL

* * *

// solubility lookup, one value per entry
Test Protocol: Evaluation of solubility of thiazolothiazole derivatives in organic solvents
Format: physicochemical
Cond: organic solvent or mixture, thermodynamic from solid; 10 mg (1.0 weight %) in 1 ml xylene; 25° C., else heated to boiling temperature; naked eye; read-out: Solubility Xylene

CC(C)(C)c1ccc(-c2ccc(-c3nc4sc(-c5ccc(-c6ccc(C(C)(C)C)cc6)s5)nc4s3)s2)cc1 = < 10000 µg/mL
c1csc(-c2ccc(-c3nc4sc(-c5ccc(-c6cccs6)s5)nc4s3)s2)c1 [Compound 3, reference compound] = < 10000 µg/mL
CCCCCCCCc1ccc(-c2cc(CCCCCCCC)c(-c3nc4sc(-c5sc(-c6ccc(CCCCCCCC)cc6)cc5CCCCCCCC)nc4s3)s2)cc1 = > 10000 µg/mL

Exercise: Return value of solubility for input `CCCCCCCCc1cc(-c2ccc(CCCC)cc2)sc1-c1nc2sc(-c3sc(-c4ccc(CCCC)cc4)cc3CCCCCCCC)nc2s1` , no commentary.
Key: > 10000 µg/mL

Exercise: Return reported solubility. Input compound: `CCCCCCCCCCCCc1ccc(-c2cc(CCCCCCCC)c(-c3nc4sc(-c5sc(-c6ccc(CCCCCCCCCCCC)cc6)cc5CCCCCCCC)nc4s3)s2)cc1`
Key: > 10000 µg/mL

Exercise: Please list solubility recorded for the compound `CCCCc1ccc(-c2ccc(-c3nc4sc(-c5ccc(-c6ccc(CCCC)cc6)s5)nc4s3)s2)cc1`
Key: < 10000 µg/mL

Exercise: Note down solubility recorded for `CCCCCCCCc1ccc(-c2cc(C)c(-c3nc4sc(-c5sc(-c6ccc(CCCCCCCC)cc6)cc5C)nc4s3)s2)cc1`
Key: < 10000 µg/mL

Exercise: Given `CCCCOc1ccc(-c2ccc(-c3nc4sc(-c5ccc(-c6ccc(OCCCC)cc6)s5)nc4s3)s2)cc1` , respond with its solubility.
Key: < 10000 µg/mL

* * *

Test Protocol: Evaluation of solubility of thiazolothiazole derivatives in organic solvents
Assay type: physicochemical
Cond: organic solvent or mixture, thermodynamic from solid; 10 mg (1.0 weight %) in 1 ml chloroform; 25° C., else heated to boiling temperature; naked eye; read-out: Solubility Chloroform
The following compounds are shown together with reported solubility values.

CCCCCCCCCCCCc1ccc(-c2cc(CCCCCCCC)c(-c3nc4sc(-c5sc(-c6ccc(CCCCCCCCCCCC)cc6)cc5CCCCCCCC)nc4s3)s2)cc1 [Exemplary Compound (28)] = > 10 mg/mL
CCCCOc1ccc(-c2ccc(-c3nc4sc(-c5ccc(-c6ccc(OCCCC)cc6)s5)nc4s3)s2)cc1 [Exemplary Compound (11)] = < 10 mg/mL
CC(C)(C)c1ccc(-c2ccc(-c3nc4sc(-c5ccc(-c6ccc(C(C)(C)C)cc6)s5)nc4s3)s2)cc1 [Exemplary Compound (15)] = < 10 mg/mL
CCCCCCCCc1cc(-c2ccc(CCCC)cc2)sc1-c1nc2sc(-c3sc(-c4ccc(CCCC)cc4)cc3CCCCCCCC)nc2s1 [Exemplary Compound (25)] = > 10 mg/mL
CCCCc1ccc(-c2ccc(-c3nc4sc(-c5ccc(-c6ccc(CCCC)cc6)s5)nc4s3)s2)cc1 [Exemplary Compound (1)] = < 10 mg/mL
CCCCCCCCc1ccc(-c2cc(C)c(-c3nc4sc(-c5sc(-c6ccc(CCCCCCCC)cc6)cc5C)nc4s3)s2)cc1 [Exemplary Compound (8)] = < 10 mg/mL

Exercise: Return reported solubility. Input compound: CCCCCCCCc1ccc(-c2cc(CCCCCCCC)c(-c3nc4sc(-c5sc(-c6ccc(CCCCCCCC)cc6)cc5CCCCCCCC)nc4s3)s2)cc1 [Exemplary Compound (27)]
Key: > 10 mg/mL

Exercise: Consider the compound c1csc(-c2ccc(-c3nc4sc(-c5ccc(-c6cccs6)s5)nc4s3)s2)c1 [Compound 3, reference compound] and give its recorded solubility.
Key: < 10 mg/mL
